The values you see were collected from patent US9266870B2.

- target: UniProt O43613
- Sequence (O43613 whole entry): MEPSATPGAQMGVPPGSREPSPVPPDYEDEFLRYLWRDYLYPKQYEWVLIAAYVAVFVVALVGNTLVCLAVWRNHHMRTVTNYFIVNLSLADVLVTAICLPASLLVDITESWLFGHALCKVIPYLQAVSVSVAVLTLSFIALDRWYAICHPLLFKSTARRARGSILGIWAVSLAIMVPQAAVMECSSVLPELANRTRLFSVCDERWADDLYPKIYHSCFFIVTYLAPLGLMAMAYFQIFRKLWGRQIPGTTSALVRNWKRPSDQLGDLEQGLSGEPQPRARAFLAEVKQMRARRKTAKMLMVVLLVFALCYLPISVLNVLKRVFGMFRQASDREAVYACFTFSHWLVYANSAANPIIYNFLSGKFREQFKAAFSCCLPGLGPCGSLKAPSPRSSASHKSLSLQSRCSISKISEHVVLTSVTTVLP
- assay notes: Measurement of orexin antagonistic activity (intracellular Ca2+ fluorescence, FDSS), hOX1R
- Assay type: cell-based
- experimental conditions: CHO cells forcibly expressing hOX1R; ligand peptide (modified human orexin-A) 300 pM; maximum fluorescence intensity; read-out: IC50 Value OX1
- Method: Chinese hamster ovary (CHO) cells forcibly expressing the hOX1R and hOX2R were seeded into a 96 well Black clear bottom plate (Nunc) at 20,000 cells per well, which were cultured in Ham's F-12 medium containing 0.1 mM MEM non-essential amino acids, 0.5 mg/ml G418, 10% fetal bovine serum (all by Invitrogen) for 16 hours under the conditions of 37° C., 5% CO2. […]
pIC50: −log10 of the molar value.
Output YES for pIC50 not less than 8; output NO otherwise.

Here's what some known entries look like.
Q: Hello, I need to know if Cc1ccc(-n2nccn2)c(C(=O)N2CCCOC2Cc2noc(-c3ccc(F)cn3)n2)c1 (single isomer, unassigned; (-)) has measured pIC50 not below 8. Thanks!
A: YES

Q: Record Cc1ccc(-n2nccn2)c(C(=O)N2CCOC2Cn2ccc(-c3ccc(F)cc3)n2)c1 (racemic) ; criterion: pIC50 no lower than 8. Met?
A: YES

Q: Quick check: does Cc1ccc(-c2ncccn2)c(C(=O)N2CCCOC2Cc2noc(-c3ccc(F)cn3)n2)c1 (racemic) have pIC50 greater than or equal to 8?
A: NO

Q: Item O=C(c1cc(F)ccc1-n1nccn1)N1CCOC1Cn1ccc(-c2ccc(F)cc2)n1 (racemic) with pIC50 of 8 or above?
A: NO

Q: Form field: pIC50 at least 8? Entry: Cc1ccc(-c2ncccn2)c(C(=O)N2CCCOC2Cn2ccc(-c3ccc(F)cc3)n2)c1 (single isomer, unassigned; (-))
A: YES

Q: Confirm if pIC50 reported for the molecule Cc1ccc(-n2nccn2)c(C(=O)N2[C@H](Cn3ccc(-c4ccc(F)cn4)n3)OC[C@@H]2C)c1 is 8 or above.
A: NO

Q: Is pIC50 at least 8? Consider Cc1ccc(-n2nccn2)c(C(=O)N2CCOC2Cn2ccc(-c3ccc(F)cn3)n2)n1 (racemic)
A: NO

Q: Quick check, pIC50 >= 8? Cc1ccc(-n2nccn2)c(C(=O)N2CCCOC2Cc2noc(-c3ccc(F)cc3)n2)c1 (single isomer, unassigned; (-))
A: YES

Next:
Q: Does the molecule O=C(c1cc(F)ccc1-c1ncccn1)N1CCCOC1Cn1ccc(-c2ccc(F)cn2)n1 (single isomer, unassigned; (-)) have recorded pIC50 that is 8 or more?
A: YES

Q: Determine whether this molecule has pIC50 no lower than 8: O=C(c1ccccc1-n1nccn1)N1CCOC1Cn1ccc(-c2ccc(F)cc2)n1 (racemic)
A: NO

Q: Decide: is the reported value of pIC50 for Cc1ccc(-n2nccn2)c(C(=O)N2[C@H](Cn3cc(-c4ccc(F)cn4)cn3)OCC[C@@H]2C)c1 equal to or greater than 8?
A: NO

Q: Check if pIC50 >= 8 (inclusive). Item: Cc1ccc(-c2ncccn2)c(C(=O)N2CCCOC2Cn2ccc(-c3ccc(F)cc3)n2)n1 (single isomer, unassigned; (-))
A: YES

###

- target: human orexin-2 receptor (hOX2R) (Homo sapiens (Human), UniProt O43614)
- Sequence (O43614 whole entry): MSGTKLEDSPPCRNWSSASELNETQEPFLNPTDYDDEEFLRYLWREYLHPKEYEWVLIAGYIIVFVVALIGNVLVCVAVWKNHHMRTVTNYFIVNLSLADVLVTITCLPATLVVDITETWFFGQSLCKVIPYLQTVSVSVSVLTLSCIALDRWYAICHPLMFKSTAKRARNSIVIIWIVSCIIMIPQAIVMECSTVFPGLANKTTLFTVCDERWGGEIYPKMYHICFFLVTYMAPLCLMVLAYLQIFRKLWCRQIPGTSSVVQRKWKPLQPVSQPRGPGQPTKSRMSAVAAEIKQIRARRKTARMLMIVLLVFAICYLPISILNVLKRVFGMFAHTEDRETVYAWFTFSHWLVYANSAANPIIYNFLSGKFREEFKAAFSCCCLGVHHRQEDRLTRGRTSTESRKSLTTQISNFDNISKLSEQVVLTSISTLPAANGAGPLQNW
- assay notes: Measurement of orexin antagonistic activity (intracellular Ca2+ fluorescence, FDSS), hOX2R
- Assay type: cell-based
- experimental conditions: CHO cells forcibly expressing hOX2R; ligand peptide (modified human orexin-A) 3 nM; maximum fluorescence intensity; read-out: IC50 Value OX2
Overview of recorded IC50 for various compounds

# example entries with known answers
IC50 reported for this compound Cc1ccc(-n2nccn2)c(C(=O)N2CCOC2Cn2cc(-c3ccc(F)cn3)cn2)c1 (single isomer, unassigned; (-)) [Example 2] : 18.6 nM

# IC50 of Cc1ccc(-c2ncccn2)c(C(=O)N2CCCOC2Cn2ccc(-c3ccc(F)cc3)n2)c1 (single isomer, unassigned; (-)) [Example 41] = 1 nM

Value of measured IC50 for the entry Cc1ccc(-n2nccn2)c(C(=O)N2CCOC2Cn2ccc(-c3ccc(F)cc3)n2)n1 (single isomer, unassigned; (-)) [Example 26] : 59.1 nM

More entries:
The compound listed as Cc1ccc(-n2nccn2)c(C(=O)N2[C@H](Cn3cc(-c4ccc(F)cn4)cn3)OC[C@@H]2C)c1 [Example 10] has a reported IC50 of 273 nM

Measured IC50, O=C(c1ccccc1-n1nccn1)N1CCOC1Cn1ccc(-c2ccc(F)cc2)n1 (racemic) [Example 18] : 192 nM

Data point: Cc1ccc(-n2nccn2)c(C(=O)N2[C@H](C)CO[C@H]2Cn2cc(-c3ccc(F)cn3)cn2)c1 [Example 8] ; IC50 = 460 nM

Kindly note the recorded IC50 for Cc1ccc(-n2nccn2)c(C(=O)N2CCCOC2Cc2noc(-c3ccc(F)cc3)n2)c1 (single isomer, unassigned; (-)) [Example 37] , which is 1.7 nM
